# subject-of-test: human recombinant aromatase (Homo sapiens)
# experiment-description: Kinetic analysis of inhibitory activity against human recombinant aromatase using Lineweaver-Burk plots (testosterone substrate, estradiol EIA)
# settings: testosterone 0.4–4 µM as substrate; secondary plot of Lineweaver–Burk; N = 3
Answer each item with its documented Ki.
// units = µM; emit number, no label

GET /value?item= "CC[C@H](OC(C)=O)c1cc(=O)oc2c(C(=O)CC(C)C)c(O)c(C/C=C(\C)CCC=C(C)C)c(O)c12" &field=Ki returns 1.3

GET /value?item= CCCC(=O)c1c(O)c(CC=C(C)C)c(O)c2c(C(CC)OC(C)=O)cc(=O)oc12 (stereo not shown) &field=Ki returns 11.3

GET /value?item= CCCC(=O)c1c(O)c2c(c3c(C(CC)OC(C)=O)cc(=O)oc13)OC(C)(C)C=C2 (stereo not shown) &field=Ki returns 2.3

GET /value?item= CCC(C)C(=O)c1c(O)c(CC=C(C)C)c2oc(=O)cc(-c3ccccc3)c2c1O (stereo not shown) &field=Ki returns 8.1

GET /value?item= CCCC(=O)c1c(O)c(C/C=C(\C)CCC=C(C)C)c2c3c(cc(=O)oc13)CC(C)O2 (stereo not shown) &field=Ki returns 4.3

GET /value?item= CC[C@H](O)c1cc(=O)oc2c(C(=O)CC(C)C)c(O)c3c(c12)OC(C)(CCC=C(C)C)C=C3 (stereo partly shown) &field=Ki returns 7.1

GET /value?item= "CC(C)=CCc1c(O)c(C(=O)CC(C)C)c(O)c2c(-c3ccccc3)cc(=O)oc12" &field=Ki returns 13.7

GET /value?item= CCC(C)C(=O)c1c(O)c(C/C=C(\C)CCC=C(C)C)c(O)c2c([C@H](CC)OC(C)=O)cc(=O)oc12 (stereo partly shown) &field=Ki returns 1.3

GET /value?item= CCCc1cc(=O)oc2c3c(c(C(=O)C(C)CC)c(O)c12)OC(C)(C)C=C3 (stereo not shown) &field=Ki returns 0.84

GET /value?item= "CC(C)CC(=O)c1c2c(c3oc(=O)cc(-c4ccccc4)c3c1O)C=CC(C)(C)O2" &field=Ki returns 1.2

GET /value?item= "CCCC(=O)c1c(O)c(C/C=C(\C)CCC=C(C)C)c(O)c2c([C@H](CC)OC(C)=O)cc(=O)oc12" &field=Ki returns 5.1

GET /value?item= CC(C)CC(=O)c1c2c(c3oc(=O)cc(-c4ccccc4)c3c1O)CC(C(C)(C)O)O2 (stereo not shown) &field=Ki returns 4.3

GET /value?item= CC(C)=CCC/C(C)=C/Cc1c(O)c(C(=O)C(C)C)c2oc(=O)cc3c2c1OC(C)C3 (stereo not shown) &field=Ki returns 2.8

GET /value?item= CCCC(=O)c1c(O)c2c(c3c([C@@H](O)CC)cc(=O)oc13)OC(C)(CCC=C(C)C)C=C2 (stereo partly shown) &field=Ki returns 14.7

GET /value?item= CCC(C)C(=O)c1c(O)c(C/C=C(\C)CCC=C(C)C)c(O)c2c([C@@H](O)CC)cc(=O)oc12 (stereo partly shown) &field=Ki returns 2.6

GET /value?item= "C=C(C)c1cc2c(o1)c(C(=O)CC(C)C)c(O)c1c(-c3ccccc3)cc(=O)oc12" &field=Ki returns 2.3

GET /value?item= "C=C(C)c1cc2c(o1)c(C(=O)CCC)c(O)c1c(-c3ccccc3)cc(=O)oc12" &field=Ki returns 2.6

GET /value?item= "CCCC(=O)c1c(O)c2c(c3c(CCC)cc(=O)oc13)OC(C)(C)C=C2" &field=Ki returns 3.4

GET /value?item= CCC(C)C(=O)c1c(O)c2c(c3c([C@@H](O)CC)cc(=O)oc13)OC(C)(CCC=C(C)C)C=C2 (stereo partly shown) &field=Ki returns 12.3

---

Answer each item with its documented IC50.
# subject-of-test: human recombinant aromatase (Homo sapiens, UniProt P11511)
# Construct: purchased BD Biosciences (Heidelberg, Germany)
# Sequence (P11511 1-503): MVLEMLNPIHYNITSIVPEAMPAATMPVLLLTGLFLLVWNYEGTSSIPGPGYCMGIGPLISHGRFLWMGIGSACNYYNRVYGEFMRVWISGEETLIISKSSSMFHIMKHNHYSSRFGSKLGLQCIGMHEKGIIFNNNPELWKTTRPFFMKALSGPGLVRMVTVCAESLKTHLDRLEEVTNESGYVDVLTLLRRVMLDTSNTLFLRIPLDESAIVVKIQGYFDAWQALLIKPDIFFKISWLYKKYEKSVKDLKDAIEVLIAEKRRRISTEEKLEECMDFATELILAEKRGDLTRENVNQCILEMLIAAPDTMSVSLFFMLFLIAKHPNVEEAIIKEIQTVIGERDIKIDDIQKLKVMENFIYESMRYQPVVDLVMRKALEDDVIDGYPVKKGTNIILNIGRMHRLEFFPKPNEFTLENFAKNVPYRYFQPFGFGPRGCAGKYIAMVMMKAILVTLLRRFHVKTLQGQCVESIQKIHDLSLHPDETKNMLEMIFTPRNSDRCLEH
# experiment-description: Inhibitory effects against human recombinant aromatase (DBF fluorescence assay)
# Type: biochemical
# settings: substrate DBF; mean, N = 3
// units = µM; emit number, no label

Reported human recombinant aromatase (Homo sapiens, UniProt P11511) IC50 for item CCCc1cc(=O)oc2c(C(=O)C(C)CC)c(O)c3c(c12)OC(C)(CCC=C(C)C)C=C3 (centres unmarked) [compound 13, Mammeasin H] was 17.9

Reported human recombinant aromatase (Homo sapiens, UniProt P11511) IC50 for item CCCC(=O)c1c(O)c2c(c3c([C@@H](O)CC)cc(=O)oc13)OC(C)(CCC=C(C)C)C=C2 (some centres unmarked) [compound 23, Kayaessamin I] was 9.3

Reported human recombinant aromatase (Homo sapiens, UniProt P11511) IC50 for item CCC(OC(C)=O)c1cc(=O)oc2c(C(=O)C(C)C)c(O)c3c(c12)OC(C)(C)C=C3 (centres unmarked) [compound 34, Mammea E/BD cyclo D] was 21.1

Reported human recombinant aromatase (Homo sapiens, UniProt P11511) IC50 for item C/C=C/c1cc(=O)oc2c(C(=O)CCC)c(O)c3c(c12)OC(C)(CCC=C(C)C)C=C3 (centres unmarked) [compound 14, Mammeasin I] was 21.3

Reported human recombinant aromatase (Homo sapiens, UniProt P11511) IC50 for item C=C(C)c1cc2c(o1)c(C(=O)CCC)c(O)c1c(-c3ccccc3)cc(=O)oc12 [compound 4, mammeasin N] was 12

Reported human recombinant aromatase (Homo sapiens, UniProt P11511) IC50 for item CCCC(=O)c1c(O)c2c(c3c(CCC)cc(=O)oc13)OC(C)(C)C=C2 [compound 1, mammeasin K] was 7.6

Reported human recombinant aromatase (Homo sapiens, UniProt P11511) IC50 for item CCC(C)C(=O)c1c(O)c2c(c3c([C@@H](O)CC)cc(=O)oc13)OC(C)(C)C=C2 (some centres unmarked) [compound 42, Deacetylammea E/BB cyclo D] was 12.1

Reported human recombinant aromatase (Homo sapiens, UniProt P11511) IC50 for item CCC(C)C(=O)c1c(O)c2c(c3c([C@@H](O)CC)cc(=O)oc13)OC(C)(CCC=C(C)C)C=C2 (some centres unmarked) [compound 11, Mammeasin F] was 12.4

Reported human recombinant aromatase (Homo sapiens, UniProt P11511) IC50 for item CC(C)CC(=O)c1c2c(c3oc(=O)cc(-c4ccccc4)c3c1O)CC(C(C)(C)O)O2 (centres unmarked) [compound 39, Mammea A/AA cyclo F] was 9.2

Reported human recombinant aromatase (Homo sapiens, UniProt P11511) IC50 for item C=C(C)c1cc2c(o1)c(C(=O)CC(C)C)c(O)c1c(-c3ccccc3)cc(=O)oc12 [compound 5, mammeasin O] was 9.1

Reported human recombinant aromatase (Homo sapiens, UniProt P11511) IC50 for item CCCc1cc(=O)oc2c3c(c(C(=O)C(C)CC)c(O)c12)OC(C)(CCC=C(C)C)C=C3 (centres unmarked) [compound 15, Mammeasin J] was 23.4

Reported human recombinant aromatase (Homo sapiens, UniProt P11511) IC50 for item CCCC(=O)c1c(O)c(CC=C(C)C)c(O)c2c(C(CC)OC(C)=O)cc(=O)oc12 (centres unmarked) [compound 38, Mammea E/BC] was 23.2

Reported human recombinant aromatase (Homo sapiens, UniProt P11511) IC50 for item CCCC(=O)c1c2c(c3oc(=O)cc(-c4ccccc4)c3c1O)CC(C(C)(C)O)O2 (centres unmarked) [compound 40, Mammea A/AC cyclo F] was 19.9

Reported human recombinant aromatase (Homo sapiens, UniProt P11511) IC50 for item CC[C@H](O)c1cc(=O)oc2c(C(=O)CC(C)C)c(O)c3c(c12)OC(C)(CCC=C(C)C)C=C3 (some centres unmarked) [compound 10, Mammeasin E] was 11.1

---

# subject-of-test: human recombinant aromatase (Homo sapiens, UniProt P11511)
# Construct: purchased BD Biosciences (Heidelberg, Germany)
# experiment-description: Inhibitory effects against human recombinant aromatase (DBF fluorescence assay)
# Assay type: biochemical
# settings: substrate DBF; mean, N = 3
observed-property: IC50 (µM)
// units = µM; emit number, no label

GET /value?item= "CCCC(=O)c1c(O)c2c(c3c(-c4ccccc4)cc(=O)oc13)OC(C)(C)C=C2" &field=IC50 returns 20.7

GET /value?item= CCCC(=O)c1c(O)c2c(c3c(CCC)cc(=O)oc13)OC(C)(CCC=C(C)C)C=C2 (centres unmarked) &field=IC50 returns 21.3

GET /value?item= "CC[C@H](O)c1cc(=O)oc2c3c(c(C(=O)CC(C)C)c(O)c12)OC(C)(C)C=C3" &field=IC50 returns 19.3

GET /value?item= "CCCC(=O)c1c(O)c(C/C=C(\C)CCC=C(C)C)c(O)c2c([C@@H](O)CC)cc(=O)oc12" &field=IC50 returns 10
